- test details: JC-1 mitochondrial signal, unstimulated MM1S myeloma – cell-based, JC-1 fluorescence, 24 h, 100 nL compound, profiling panel (AID 1170); note: test concentration not given here
- experimental parameters: MM1S mitochondrial potential, higher = more signal
endpoint label: z-score
Respond numerically, and do not add a unit to the figure.

In: For the compound Cc1ccc(S[C@]2(C(=O)NCCCN(C)C)CC(=O)N(C(C)C)[C@@H]2c2ccc(CO)cc2I)cc1 , what z-score is on record?
Out: -2.32

In: For the compound C=CCN1C(=O)[C@@]2(O[C@@H](CCO)[C@H]([Si](C)(C)c3ccc(OC)cc3)[C@H]2C)c2cc(N3C(=O)COc4ccccc43)ccc21 , what z-score is on record?
Out: -2.24

In: For the compound O=C1OCC=C[C@H]2OC34C=CCN(CCN5CCOCC5)C(=O)[C@H]3N(CCCCCCO)C(=O)[C@@H]4[C@@H]12 (some centres not stated) , what z-score is on record?
Out: 0.858

In: For the compound CCOC(=O)C[C@H]1[C@H](OC(=O)c2ccc(C(=O)c3ccccc3)cc2)[C@@H](NC(=O)c2ccc3ccccc3n2)c2cc(OCCCO)ccc2N1C(=O)c1ccc2ccccc2n1 , what z-score is on record?
Out: 0.215

In: For the compound C=C[C@@H](C)[C@@H](OC(=O)Nc1ccc(OC)cc1)c1ccc(O)c2ccccc12 , what z-score is on record?
Out: -1.23

In: For the compound COc1ccc([Si](C)(C)[C@H]2[C@H](CC(=O)N3CCC[C@H]3CO)O[C@@]3(C(=O)N(c4ccccc4)c4ccccc43)[C@@H]2C)cc1 , what z-score is on record?
Out: -0.947

In: For the compound COc1ccc([Si](C)(C)[C@@H]2[C@@H](CCO)O[C@]3(C(=O)N(Cc4cccc(N(C=O)c5ccccc5)c4)c4ccccc43)[C@H]2C)cc1 , what z-score is on record?
Out: 0.0823

---

- target under test: Epidermal growth factor receptor (Homo sapiens)
- test details: compounds binding epidermal growth factor receptor – biochemical, small-molecule microarray, 635 nm fluorescence, primary screen (AID 1104);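 note: score merges 667 nm emission intensity with spot signal to noise over triplicate slides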
- experimental parameters: EGFR binding, higher = more signal
endpoint label: composite z-score

In: For the compound COC(=O)c1nc2oc1CC[C@@H](CO)NC(=O)N(C)Cc1cn(nn1)C[C@H](Cc1ccccc1)NC2=O , what composite z-score is on record?
Out: -0.647

In: For the compound C=CCC(OC(C)=O)[C@@H]1[C@@H](N(Cc2ccc(-c3ccccc3)cc2)C(=O)c2ccc(C)cc2)c2cc(OCCCO)ccc2N1C(=O)Cc1ccc(OC)cc1 (some centres not stated) , what composite z-score is on record?
Out: 0.0485

In: For the compound C=CCC(OC(C)=O)[C@@H]1[C@@H](N(Cc2ccc(-c3cccc(C(F)(F)F)c3)o2)C(=O)Cc2ccc(OC)cc2)c2cc(OCCCO)ccc2N1C(=O)Cc1ccc(OC)cc1 (some centres not stated) , what composite z-score is on record?
Out: -0.719

In: For the compound C#C[C@H]1Oc2ccccc2S(=O)(=O)N2CCC[C@@H]12 , what composite z-score is on record?
Out: 0.354

In: For the compound COc1ccc([Si](C)(C)[C@H]2[C@H](CC(=O)N3CCC[C@H]3CO)O[C@@]3(C(=O)N(c4ccccc4)c4ccccc43)[C@@H]2C)cc1 , what composite z-score is on record?
Out: 0.138

In: For the compound CO[C@H]1O[C@H](CO)[C@@H](OC(=O)Nc2ccccc2-c2ccccc2)[C@H](OC(=O)Nc2ccccc2-c2ccccc2)[C@H]1OC(=O)Nc1ccccc1-c1ccccc1 , what composite z-score is on record?
Out: 0.197

In: For the compound C=C(CCCC)C(=O)CC[C@H](OC(C)=O)c1ccc(CO)o1 , what composite z-score is on record?
Out: -0.567
